Each entry below lists one item and its recorded pKd value.
Target: T1, PARD3B_1, Q8TEW8
T1 sequence (Q8TEW8 196-299, limits assumed, looked up): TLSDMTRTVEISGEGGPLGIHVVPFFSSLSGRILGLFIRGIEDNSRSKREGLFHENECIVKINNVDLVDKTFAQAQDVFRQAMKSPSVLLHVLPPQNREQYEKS
Test: holdup assay
Design: key: below the threshold = too weak to quantify, mostly under pKd 3.1 to 4
Conditions: plain residues with an end cap or a label only (N-terminal biotin on a linker: ado-ado)

| binder | pKd |
| --- | --- |
| QKNKDKEYYV [NRXN3_rs746444206, Q9Y4C0] | 3.84 |
| GFGEERESIL [KIDINS220, Q9ULH0] | 4.57 |
| TETASVCTKV [SLC23A1, Q9UHI7] | 3.61 |
